Provenance of the data: PubChem BioAssay (NCI)

Test system: NCI/ADR-RES ovarian
Test: NCI tumour cell line growth inhibition, 48 h
Measured TGI values are reported for all entries that follow.
Respond with the bare value in µM.

// below: answered compounds
SAMPLE SMILES	TGI [µM]
O=[N+]([O-])c1cccc(-c2nc(-c3ccc(Cl)cc3Cl)cn2-c2ccccc2)c1	15.6
C[C@]12CC[C@@H]3c4ccc(O)cc4CC[C@H]3[C@@H]1CC[C@@H]2NS(=O)(=O)c1ccc(Br)cc1	8.79
O=C(O)C(O)(c1ccc(-c2ccccc2)cc1)c1ccc(-c2ccccc2)cc1	61.2

Please turn your attention to the following entry.
Given the compound COc1cc(Cl)cc(-c2nn(-c3cccc(NC(=O)Nc4cccc(C(F)(F)F)c4)c3)cc2-c2ccncc2)c1 , what is its reported TGI?
7.81
